- System: DLD-1
- test.summary: NCI tumour cell line growth inhibition, 48 h
Calls of active or inactive are those of the source. Cut-off read from the data, not from the text of the source: active = GI50 up to about 1.1 µM and inactive = higher.

| compound | GI50 |
| --- | --- |
| O=C(O)COc1ccc(C(=O)/C(SS/C(C(=O)c2ccc(OCC(=O)O)c(Cl)c2Cl)=C2\C=C(c3ccc(F)cc3)SS2)=C2/C=C(c3ccc(F)cc3)SS2)c(Cl)c1Cl | 11.2 µM (inactive) |
| c1cnc2c(c1)-n1cccc1C1(CCOCC1)NN2 | > 100 µM (inactive) |
| [O-][n+]1c(-c2ccccc2)oc2ccccc21 | 7.82 µM (inactive) |
| CSC[S+]([O-])C[C@H](CO)NC(=O)/C=C/c1c(C)[nH]c(=O)[nH]c1=O (stereo not given in full) | 1.6 µM (inactive) |
| CCOC(=O)C(=O)CC(=O)C(Br)C(Br)c1ccc(Cl)cc1 (stereo not given) | 18.3 µM (inactive) |

* * *

- Tested on: DLD-1
- test.summary: NCI tumour cell line growth inhibition, 48 h
The source made the active and inactive calls. Rule as the data show it: active = GI50 up to about 1.1 µM and inactive = higher.
Classes used: active, inactive

| compound | label |
| --- | --- |
| CCOC(=O)C(=O)Nc1ccc(Cl)cc1C | inactive |
| COc1cc(OC)c(Oc2cccc(OC)c2OC)c(OC)c1 | inactive |
| Cc1cc(NC(=O)NC(=O)c2ccccc2NC(=O)C(C)N)ccc1Oc1ncc(Br)cn1 (centres undefined) | active |
| Cc1cc(C)c(-c2noc(-c3ccc(Cl)cc3)c2C2=NCCCN2)c(C)c1 | inactive |
| C#Cc1cccc(N2C(=O)CCC2=O)c1 | inactive |
| Cn1c(=O)c2nc(NCCO)cnc2n(C)c1=O | inactive |
| Cc1ccc(-c2nnc(SCC(=O)O)[nH]2)cc1 | inactive |
| CCCCCCCCC(=O)NCCCNCCCNC(=O)CCCCCCCC | inactive |
| O=c1/c(=C/c2ccccc2[N+](=O)[O-])sc2nnc(-c3cccnc3)n12 | inactive |

* * *

- System: HOP-92
- test.summary: NCI tumour cell line growth inhibition, 48 h
Active and inactive are the calls of the source. Rule as the data show it: active = GI50 up to about 1.1 µM and inactive = higher. Where a SMILES comes first, the peptide text is derived from it. [ ]: non-standard residue; d: D form. The star is where a group is joined. ξ: configuration not given here. Propanoyl(3-(4-MeO-Ph)) = COc1ccc(CCC(=O)*)cc1; Thr(3ξ) = CC(O)[C@H](N)C(=O)O; dNMeL = CN[C@H](CC(C)C)C(=O)O; OBn = c1ccc(CO*)cc1; ξLac = CC(O)C(=O)O
This section presents compounds with their documented GI50 values.
parameter: GI50

| compound | observed.result |
| --- | --- |
| CC(=O)O[C@H]1/C(=C/c2ccc(N(C)C)cc2)C[C@H]2[C@@H]3CC=C4C[C@@H](N5CCCC5)CC[C@]4(C)[C@H]3CC[C@]12C | > 100 µM (inactive) |
| CC(C)(C)c1cc(C(O)(C(F)(F)F)C(F)(F)F)c2c(c1)C(C(F)(F)F)(C(F)(F)F)OC(C)(C(C)(C)C)N2 (stereo not drawn) | < 0.01 µM (active) |
| COc1ccc(CCC(=O)OC(C)[C@H](NC(=O)[C@@H](CC(C)C)N(C)C(=O)[C@@H]2CCCN2C(=O)C(C)O)C(=O)OCc2ccccc2)cc1 (stereo partly drawn) (H-[ξLac]P[dNMeL][Thr(3ξ)](Propanoyl(3-(4-MeO-Ph)))-OBn) | 19.1 µM (inactive) |
| O=C(O)C(/C=C/c1ccccc1)c1ccccc1 (stereo not drawn) | > 100 µM (inactive) |
| Cn1c2ccc3cc2c(=S)c2cc(ccc21)OCCOCCOCCOCCOCCO3 | > 10 µM (inactive) |
| CS(=O)(=O)OCC1CCCCCCCCCCC12SCCCS2 (stereo not drawn) | > 100 µM (inactive) |
| Cc1ccccc1NC(=O)C(=O)CC(=O)C1CCOC1=O (stereo not drawn) | > 100 µM (inactive) |
| Cc1ccc(C2(N3CCCC3)OC(C)(C)c3cccc4cccc2c34)cc1 (stereo not drawn) | 1.48 µM (inactive) |

* * *

Recorded GI50 by entry
- Test system: HOP-92
- test.summary: NCI tumour cell line growth inhibition, 48 h
Active and inactive are the calls of the source. No stated cut-off is given here; in the data, active = GI50 up to about 1.1 µM and inactive = higher.
parameter: GI50

| molecule | observed.result |
| --- | --- |
| CC(C)c1ccc2c(c1)[C@@]1(C)CC[C@H](C)C(C)(C)C1CC2 (stereo partly drawn) | 16.9 µM (inactive) |
| Cc1ccc2c(c1)SSSSS2 | 18.5 µM (inactive) |
| O=C(O)CCNS(=O)(=O)c1ccc(NC(=O)c2ccccc2)cc1 | > 100 µM (inactive) |
| Cc1c(-c2ccccc2)c(C#N)c2nnn(-c3cccc(Cl)c3)c(=O)n12 | 44.9 µM (inactive) |
| COc1ccc(NC(=S)N/N=C\c2ccc(NC(C)=O)cc2)cc1 | > 100 µM (inactive) |
| CC1CC(=O)Nc2ccccc2N1C(=O)C1CC1 (stereo not drawn) | 19.5 µM (inactive) |
| Nc1n[nH]c(Nc2ccc(Cl)cc2)c1P(=O)(c1ccccc1)c1ccccc1 | 20.8 µM (inactive) |
| CCOC(=O)/C=C/[C@H](O[Si](c1ccccc1)(c1ccccc1)c1ccccc1)C(C)(C)C | > 31.6 µM (inactive) |
| O=C(NCCCNCCCCNCCCNC(=O)c1cc(-c2ccccc2)nc2ccccc12)c1cc(-c2ccccc2)nc2ccccc12 | 1.48 µM (inactive) |
| O=C(Sc1c(-c2ccccc2)c(=O)n(-c2ccccc2)c(=S)n1-c1ccccc1)c1cccs1 | 50 µM (inactive) |
| O=C1C2CC=CCC2C(=O)C12CCc1ccccc12 (stereo not drawn) | > 100 µM (inactive) |
| N=C(N)NS(=O)(=O)c1ccc(Nc2c3ccccc3nc3c(C(=O)NC(CO)(CO)CO)cccc23)cc1 | 14.4 µM (inactive) |
| O=C1C=CC2(CCCCCCC2=O)CC1 (stereo not drawn) | > 100 µM (inactive) |
| Cc1cccc(C(C)C)c1NC(=O)C(=O)C(C(=O)c1ccccc1F)C1OC(=O)c2ccccc21 (stereo not drawn) | 23.4 µM (inactive) |
| O=C(Nc1ccccc1)N1CCN(C(=O)Nc2ccccc2)C1=S | 29 µM (inactive) |
| COC(=O)C1(Cc2ccccc2)Cc2ccccc2C1 | 11.5 µM (inactive) |
| O=C(O)COc1ccc(C(=O)/C(SS/C(C(=O)c2ccc(OCC(=O)O)c(Cl)c2Cl)=C2\C=C(c3ccc(F)cc3)SS2)=C2/C=C(c3ccc(F)cc3)SS2)c(Cl)c1Cl | 3.75 µM (inactive) |
| OCC1OC(Oc2cc(O)cc(/C=C\c3ccc(O)cc3)c2)C(O)C(O)C1O (stereo not drawn) | > 100 µM (inactive) |
| Cc1ccc(NC(=O)CSC(N)=O)cc1C | > 100 µM (inactive) |
| c1csc(-c2cc(-c3ccsc3)c(-c3cccs3)s2)c1 | 32.2 µM (inactive) |
| O=C(O)/C=C/C(=O)N1C/C(=C\c2ccccc2)C(=O)/C(=C/c2ccccc2)C1 | 19.9 µM (inactive) |
| Cc1csc(NC23CC4CC(CC(C4)C2)C3)[n+]1C(P(=O)([O-])O)P(=O)(O)O (stereo not drawn) | > 100 µM (inactive) |
| O=[N+]([O-])c1c(O)c2nonc2c2nn(-c3ccccc3)nc12 | > 100 µM (inactive) |

* * *

- System: UACC-62
- test.summary: NCI tumour cell line growth inhibition, 48 h
Active and inactive are the calls of the source. Cut-off read from the data, not from the text of the source: active = GI50 up to about 1.1 µM and inactive = higher. Where a SMILES comes first, the peptide text is derived from it. [ ]: non-standard residue; d: D form. The star is where a group is joined. ξ: configuration not given here. Propanoyl(3-(4-MeO-Ph)) = COc1ccc(CCC(=O)*)cc1; Thr(3ξ) = CC(O)[C@H](N)C(=O)O; dNMeL = CN[C@H](CC(C)C)C(=O)O; OBn = c1ccc(CO*)cc1; ξLac = CC(O)C(=O)O
Classes used: active, inactive

| compound | label |
| --- | --- |
| CCCCCCCCCCCCC(Br)C(=O)SCCNC(=O)CCNC(=O)[C@@H](O)C(C)(C)COP(=O)(O)OP(=O)(O)OCC1OC(n2cnc3c(N)ncnc32)C(O)C1OP(=O)(O)O (stereo not given in full) | inactive |
| CC(=O)OCC1OC(n2c3c(c(-c4cccc5ccccc45)c(C#N)c2=S)CCCC3)C(OC(C)=O)C(OC(C)=O)C1OC(C)=O (stereo not given) | inactive |
| COC(=O)[C@@]12OC[C@]34[C@H]([C@@H](O)[C@@H]1O)[C@@]1(C)CC(=O)C(O)=C(C)[C@@H]1C[C@H]3OC(=O)[C@H](OC(=O)/C=C(\C)C(C)C)[C@@H]24 [BRUCEANTIN] | active |
| N#C/C(=C\c1cc(OCc2ccccc2)c(OCc2ccccc2)cn1)C(N)=O | inactive |
| CCCCCCCCCCCCSC(=S)c1c(C)[nH]n(-c2ccccc2)c1=O | inactive |
| C=C1C(=O)C2=CC1CCC(=O)C1(C)CCC(OC(C)=O)C(C)(C)C1CC2O (stereo not given) | inactive |
| O=C(/C=C/c1ccccc1)CCC1C(=O)c2ccccc2C1=O | inactive |
| C/C=C\C1OC1(C)c1cc(=O)c2c(C)cc3c(c2o1)C(=O)c1c(O)c(C2CC(C)(N(C)C)C(OC(C)=O)C(C)O2)cc(C2CC(N(C)C)C(O)C(C)O2)c1C3=O (stereo not given) | active |
| COc1cccc(C(=O)N2CCc3ccccc32)c1OC | inactive |
| CC[C@]1(Cc2ccc(OC)c(OC)c2)[C@@H]2C[C@@H](C3OCCO3)ON2O[C@H](OC2CCCC2(c2ccccc2)c2ccccc2)[C@@H]1OC(C)=O (stereo not given in full) | inactive |
| Fc1ccc2c(c1)cc1ccc3cccc4ccc2c1c34 | inactive |
| CC(C)(C)/N=C\N(C=C(c1ccccc1)c1ccccc1)C1CCCCC1 | inactive |
| COc1ccc(-n2c(CCC(=O)O)nc3c2C(=O)c2ccccc2C3=O)cc1 | inactive |
| CCCCSc1nsc(N(C(=O)c2ccccc2)C(=O)c2ccccc2)n1 | inactive |
| CN(C)CCNC(=O)c1cc([N+](=O)[O-])cn1C | inactive |
| CC1=C(C#N)C2C(=C(N)Oc3ccccc32)C(N)=N1 (stereo not given) | inactive |
| CCc1c(C)[nH]c2c1/C(=N/N=C1\CCCc3[nH]c(C)c(CC)c31)CCC2 | inactive |
| O=C(O)C(/C=C/c1ccccc1)c1ccccc1 (stereo not given) | inactive |
| N#CCCN(CCC#N)c1ccc(/C=C2\SC(=S)NC2=O)cc1 | inactive |
| Oc1cc(-c2ccc(F)cc2)nc2ncc(Cl)cc12 | inactive |
| O=C1CSC2(CC(/C=C/c3cccc(Br)c3)=NN2c2cccc(S(=O)(=O)O)c2)N1c1nc2ccccc2s1 (stereo not given) | inactive |
| C[s+]1c2ccccc2c2ccccc21 | inactive |
| CC1=Nn2c(nnc2-c2ccc(Cl)cc2)NC(C)(C)C1 | inactive |
| COc1ccc(CCC(=O)OC(C)[C@H](NC(=O)[C@@H](CC(C)C)N(C)C(=O)[C@@H]2CCCN2C(=O)C(C)O)C(=O)OCc2ccccc2)cc1 (stereo not given in full) (H-[ξLac]P[dNMeL][Thr(3ξ)](Propanoyl(3-(4-MeO-Ph)))-OBn) | inactive |
| O=C(CCN1CCCCC1)C(=Cc1ccccc1)C(=O)CCN1CCCCC1 | inactive |
